Tested on: windgrass (Apera spica-venti)
METHOD_SUMMARY: Test D controlled growth environment herbicide test, pre- and postemergence
Format: in vivo
SETUP_CONDITIONS: Postemergence, 125 g ai/ha; visual rating on scale 0 (no effect) to 100 (complete control), 14 to 21 d

# SMILES_ENTRY, Plant response rating, Windgrass
measured = [
    ("CC(=O)Oc1c(C)nn(C)c(=O)c1-c1ccc(F)c2ccccc12", 70),
    ("Cc1nn(C)c(=O)c(-c2c(C)sc3ccc(Cl)cc23)c1O", 85),
    ("CC(=O)Oc1c(C)nn(C)c(=O)c1-c1c(C)sc2c(C)cc(C)cc12", 80),
    ("CCC(=O)Oc1c(C)nn(C)c(=O)c1-c1c(C)sc2c(C)cc(C)cc12", 85),
    ("Cc1cc(C)c2sc(C)c(-c3c(OC(=O)OCCCl)c(C)nn(C)c3=O)c2c1", 80),
    ("CC(=O)Oc1c(Br)nn(C)c(=O)c1-c1c(C)ccc2ccccc12", 55),
    ("Cc1ccc2ccccc2c1-c1c(O)c(C)nn(C)c1=O", 80),
]

Data provenance is patent US10597388B2.
